Data provenance is patent US6200962A.

assay-overview: Solubility in D-MEM medium
Type: physicochemical
measurement-conditions: not soluble above this concentration

{"molecule": "CCCCNP(=S)(OCC)OCC [Compound A, n-butylamido diethylthioiiophosphate]", "solubility": "≤ 2000 µM"}

---

assay-overview: Toxicity study, i.p. injection
Format: in vivo, Sabra mice
measurement-conditions: mouse, in vivo, ip, single, Sabra mice
Procedure: The toxicity of compound B was tested by injecting 75 mg/kg, 150 mg/kg, 300 mg/kg, 500 mg/kg, 700 mg/kg and 1000 mg/kg i.p. to groups of eight Sabra mice. In addition, a repetitive i.p. injection of 75 mg/kg/day over a period of two weeks was conducted on eight mice. The mice were monitored for mortality and for chances in their weight compared to a saline injected control group. […]

{"molecule": "CCOP(=S)(NCCO)OCC [Compound B, 2-hydroxyamido diethyithionophosphate]", "LD50 at 720 h": "~700 mg/kg"}
